Biological target: Factor XIIa (Homo sapiens (Human))
Sequence (P00748 373-615): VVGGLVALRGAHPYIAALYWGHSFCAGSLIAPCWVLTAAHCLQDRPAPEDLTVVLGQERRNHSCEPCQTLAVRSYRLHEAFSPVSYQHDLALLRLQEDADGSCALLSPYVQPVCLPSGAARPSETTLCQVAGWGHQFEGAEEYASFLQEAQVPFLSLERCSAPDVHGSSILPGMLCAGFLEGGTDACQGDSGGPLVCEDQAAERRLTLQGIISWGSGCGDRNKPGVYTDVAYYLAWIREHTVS

[
  {
    "querySmiles": "NCc1ccc(CNC(=O)c2cn(Cc3csc(-c4ccccc4)n3)nc2C(F)(F)F)cc1",
    "assayedSystem": "Factor XIIa (Homo sapiens (Human))",
    "IC50": "> 8.51 µM"
  },
  {
    "querySmiles": "NCc1ccc(CNC(=O)c2cn(Cc3ccccc3)nc2-c2ccccc2)cc1",
    "assayedSystem": "Factor XIIa (Homo sapiens (Human))",
    "IC50": "> 10 µM"
  }
]

###

Assay system Human KLK1 (Homo sapiens (Human)); read-out recorded as IC50.
observationType: IC50

[
  {
    "querySmiles": "Cc1cc(C(=O)NCc2ccc([C@@H](C)N)cc2)c(C)n1Cc1csc(-c2ccccc2)n1",
    "valueReported": "> 10 µM"
  },
  {
    "querySmiles": "CCCn1c(C(=O)NCc2ccc(CN)cc2)cc(C)c1Cc1ccccc1",
    "valueReported": "> 10 µM"
  },
  {
    "querySmiles": "Cc1cc(CN)cc(C)c1CNC(=O)c1cc(C)n(Cc2ccc(Cn3ccccc3=O)cc2)c1C",
    "valueReported": "10.9 µM"
  },
  {
    "querySmiles": "Cc1nc(-c2ccc(Cn3c(C)cc(C(=O)NCc4ccc(CN)cc4)c3C)s2)cs1",
    "valueReported": "> 10 µM"
  },
  {
    "querySmiles": "Cc1cc(C(=O)NCc2ccc(CN)cc2)c(C)n1Cc1csc(-c2ccccn2)n1",
    "valueReported": "> 10 µM"
  },
  {
    "querySmiles": "CCn1c(C(=O)NCc2ccc(CN)cc2)cc(C)c1Cc1csc(-c2ccccc2)n1",
    "valueReported": "> 10 µM"
  },
  {
    "querySmiles": "Cc1cc(C(=O)NCc2ccc(CN)cc2)c(C)n1Cc1csc(-c2cccnc2)n1",
    "valueReported": "8.08 µM"
  },
  {
    "querySmiles": "Cc1cc(C(=O)NCc2ccc(CN)cc2)c(C)n1Cc1ccc(C#N)cc1",
    "valueReported": "> 10 µM"
  }
]

###

Biological target: Human plasma kallikrein (Homo sapiens (Human))
Experiment: Determination of the IC50 for Plasma Kallikrein
Type: biochemical
Conditions: 37° C., fluorogenic substrate H-DPro-Phe-Arg-AFC; read-out: IC50 (human PKal)
pIC50: −log10 of the molar value.
Entry flag: class 1 if pIC50 reaches 6; class 0 if it does not.

[
  {
    "compound": "CCn1c(C(=O)NCc2c(C)cc(CN)cc2C)cc(C)c1Cc1ccc(Cn2cc(C)cn2)cc1 [Example 102]",
    "groupLabel": "class 1"
  },
  {
    "compound": "CCn1c(C(=O)NCc2ccc(CN)cc2)cc(C)c1Cc1ccccc1 [Example 77]",
    "groupLabel": "class 0"
  },
  {
    "compound": "COc1ccc(Cn2c(C)cc(C(=O)NCc3ccc(CN)cc3)c2C)cc1 [Example 61]",
    "groupLabel": "class 0"
  },
  {
    "compound": "Cc1cc(C(=O)NCc2ccc(CN)cc2)c(C)n1Cc1ccc(CN)cc1 [Example 67]",
    "groupLabel": "class 0"
  },
  {
    "compound": "Cc1cc(C(=O)NCc2ccc(CN)cc2)c(C)n1Cc1csc(-c2ccccc2)n1 [Example 1]",
    "groupLabel": "class 1"
  },
  {
    "compound": "CCn1c(C(=O)NCc2ccc(CN)cc2C)cc(C)c1Cc1ccc(Cn2cc(C)cn2)cc1 [Example 99]",
    "groupLabel": "class 1"
  },
  {
    "compound": "CCOc1ccc(Cn2c(C)cc(C(=O)NCc3ccc(CN)cc3)c2C)cc1 [Example 59]",
    "groupLabel": "class 0"
  }
]

###

Entries and their IC50
Biological target: Human KLK1 (Homo sapiens (Human))
Sequence (P06870 25-262): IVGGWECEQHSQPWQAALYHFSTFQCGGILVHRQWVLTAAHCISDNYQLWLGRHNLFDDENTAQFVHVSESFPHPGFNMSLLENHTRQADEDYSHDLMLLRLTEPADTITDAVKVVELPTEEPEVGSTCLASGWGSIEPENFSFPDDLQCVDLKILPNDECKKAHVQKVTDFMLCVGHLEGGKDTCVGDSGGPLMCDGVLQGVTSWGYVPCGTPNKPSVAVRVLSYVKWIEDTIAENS

[
  {
    "compound": "Cc1cnn(Cc2ccc(Cn3cc(C(=O)NCc4ccc(CN)c(F)c4)c(C(F)(F)F)n3)cc2)c1 [Example 117]",
    "IC50": "> 10 µM"
  },
  {
    "compound": "CCn1c(C(=O)NCc2ccc(C3(N)CC3)cc2)cc(C)c1Cc1ccc(Cn2ccccc2=O)cc1 [Example 93]",
    "IC50": "> 10 µM"
  },
  {
    "compound": "Cc1ccc2cc(Cn3ncc(C(=O)NCc4c(C)cc(CN)cc4C)c3C)ccc2n1 [Example 125]",
    "IC50": "0.657 µM"
  },
  {
    "compound": "Cc1c(C(=O)NCc2ccc(CN)cc2)ccn1Cc1csc(-c2ccccc2)n1 [Example 25]",
    "IC50": "> 10 µM"
  },
  {
    "compound": "CCn1c(C(=O)NCc2c(C)cc(CN)cc2C)cc(C)c1Cc1ccc(Cn2ccccc2=O)cc1 [Example 95]",
    "IC50": "3.9 µM"
  },
  {
    "compound": "Cc1cnn(Cc2ccc(Cn3cc(C(=O)NCc4ccc(CN)cc4)cn3)cc2)c1 [Example 85]",
    "IC50": "> 8.51 µM"
  },
  {
    "compound": "Cc1cnn(Cc2ccc(Cn3c(C)cc(C(=O)NCc4ccc(CN)cc4C)c3C)cc2)c1 [Example 97]",
    "IC50": "> 10 µM"
  },
  {
    "compound": "Cc1cc(C(=O)NCc2ccc(CN)cc2)c(C)n1Cc1cccc(-c2cccnc2)n1 [Example 17]",
    "IC50": "> 10 µM"
  }
]

###

Target: thrombin (Homo sapiens (Human), UniProt P00734)
pIC50: −log10 of the molar value.

[
  {
    "querySmiles": "NCc1ccc(CNC(=O)c2cn(Cc3csc(-c4ccccc4)n3)nc2C(F)(F)F)cc1",
    "pIC50": "< 4.40"
  }
]

###

Entries and their pIC50
Molecular target: Human plasma kallikrein (Homo sapiens (Human))
Test: Determination of the IC50 for Plasma Kallikrein
Type: biochemical
Conditions: 37° C., fluorogenic substrate H-DPro-Phe-Arg-AFC; read-out: IC50 (human PKal)
pIC50: −log10 of the molar value.
observationType: pIC50

[
  {
    "querySmiles": "Cc1cnn(Cc2ccc(Cn3cc(C(=O)NCc4c(C)cc(CN)cc4C)nn3)cc2)c1",
    "valueReported": 8.70
  },
  {
    "querySmiles": "CCn1c(C(=O)NCc2ccc(C3(N)CC3)cc2)cc(C)c1Cc1ccc(Cn2cc(C)cn2)cc1",
    "valueReported": 5.63
  },
  {
    "querySmiles": "CC(=O)NCc1ccc(Cn2c(C)cc(C(=O)NCc3ccc(CN)cc3)c2C)cc1",
    "valueReported": 5.68
  },
  {
    "querySmiles": "Cc1c(C(=O)NCc2ccc(CN)cc2)cnn1Cc1csc(-c2ccccc2)n1",
    "valueReported": 5.63
  }
]

###

Target: Human plasma kallikrein (Homo sapiens (Human), UniProt P03952)
Sequence (P03952 391-638): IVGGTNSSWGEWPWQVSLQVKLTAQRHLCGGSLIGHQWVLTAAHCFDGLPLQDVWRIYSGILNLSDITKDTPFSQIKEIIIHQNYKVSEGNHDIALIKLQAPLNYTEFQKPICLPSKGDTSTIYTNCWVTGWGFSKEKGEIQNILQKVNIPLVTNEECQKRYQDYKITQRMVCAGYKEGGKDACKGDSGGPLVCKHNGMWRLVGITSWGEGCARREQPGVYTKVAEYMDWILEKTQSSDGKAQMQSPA
Sequence (P03952 20-390 partner): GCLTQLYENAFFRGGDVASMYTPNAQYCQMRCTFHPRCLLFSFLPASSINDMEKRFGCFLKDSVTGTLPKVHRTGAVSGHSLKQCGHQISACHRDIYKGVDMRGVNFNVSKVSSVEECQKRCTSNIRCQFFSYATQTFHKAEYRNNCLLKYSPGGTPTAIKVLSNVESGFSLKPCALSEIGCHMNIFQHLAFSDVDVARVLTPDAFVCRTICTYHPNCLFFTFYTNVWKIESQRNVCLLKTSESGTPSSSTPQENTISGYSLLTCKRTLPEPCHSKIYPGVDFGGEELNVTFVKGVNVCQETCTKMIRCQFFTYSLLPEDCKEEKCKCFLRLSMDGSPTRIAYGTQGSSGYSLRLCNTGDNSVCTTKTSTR
Test: Determination of the IC50 for Plasma Kallikrein
Assay type: biochemical
Settings: read-out: IC50 (human PKal)
pIC50: −log10 of the molar value.

[
  {
    "molecule": "Cc1cc(C(=O)NCc2ccc(CN)cc2)c(C)n1Cc1ccc(Cn2ccccc2=O)cc1 [Example 90]",
    "pIC50": 6.94
  },
  {
    "molecule": "Cc1cnn(Cc2ccc(Cn3cc(C(=O)NCc4ccc(CN)cc4)cn3)cc2)c1 [Example 85]",
    "pIC50": 7.96
  }
]

###

Target: Human plasma kallikrein (Homo sapiens (Human), UniProt P03952)
Experiment: Determination of the IC50 for Plasma Kallikrein
Type: biochemical
Settings: 37° C., fluorogenic substrate H-DPro-Phe-Arg-AFC; read-out: IC50 (human PKal)
Procedure: Human plasma kallikrein (Protogen) was incubated at 37° C. with the fluorogenic substrate H-DPro-Phe-Arg-AFC and various concentrations of the test compound. Residual enzyme activity (initial rate of reaction) was determined by measuring the change in optical absorbance at 410 nm and the IC50 value for the test compound was determined.
observationType: log10 of IC50 (log10 of the value in nM)

[
  {
    "querySmiles": "Cc1cc(C(=O)NCc2ccc(CN)cc2)c(C)n1Cc1ccc(C#N)cc1",
    "log10 of IC50": 3.66
  },
  {
    "querySmiles": "Cc1cc(C(=O)NCc2ccc(CN)cc2)c(C)n1Cc1csc(-c2ccccc2)c1",
    "log10 of IC50": 2.76
  },
  {
    "querySmiles": "Cc1cnn(Cc2ccc(Cn3cc(C(=O)NCc4ccc(CN)cc4)nn3)cc2)c1",
    "log10 of IC50": 1.52
  },
  {
    "querySmiles": "Cc1cc(C(=O)NCc2ccc(CN)cc2)c(C)n1Cc1cccc(N2CCOCC2)n1",
    "log10 of IC50": 3.76
  },
  {
    "querySmiles": "Cc1cc(C(=O)NCc2ccc(CN)cc2)c(C)n1Cc1cc(-c2ccccc2)no1",
    "log10 of IC50": 3.38
  },
  {
    "querySmiles": "Cc1cc(C(=O)NCc2ccc(CN)cc2)c(C)n1Cc1ccc(-c2ccccc2)s1",
    "log10 of IC50": 3.51
  },
  {
    "querySmiles": "Cc1cc(C(=O)NCc2ccc(CN)cc2)c(C)n1Cc1ccc(C(N)=O)cc1",
    "log10 of IC50": 3.87
  },
  {
    "querySmiles": "CCOc1ccc(-c2nc(Cn3c(C)cc(C(=O)NCc4ccc(CN)cc4)c3C)cs2)cc1",
    "log10 of IC50": 3.67
  },
  {
    "querySmiles": "Cc1cnn(Cc2ccc(Cn3c(C)cc(C(=O)NCc4ccc(CN)cc4C)c3C)cc2)c1",
    "log10 of IC50": 1.45
  },
  {
    "querySmiles": "Cc1cnn(Cc2ccc(Cn3c(C)cc(C(=O)NCc4ccc(C5(N)CC5)cc4)c3C)cc2)c1",
    "log10 of IC50": 2.85
  },
  {
    "querySmiles": "Cc1cc(C(=O)NCc2ccc(CN)cc2)c(C)n1Cc1cccc(-c2ccncc2)c1",
    "log10 of IC50": 3.48
  },
  {
    "querySmiles": "Cc1cnn(Cc2ccc(Cn3c(C)cc(C(=O)NCc4ccc(CN)cc4)c3C)cc2)c1",
    "log10 of IC50": 1.80
  },
  {
    "querySmiles": "Cc1cnn(Cc2ccc(Cn3cc(C(=O)NCc4ccc(CN)cc4C)cn3)cc2)c1",
    "log10 of IC50": 0.30
  },
  {
    "querySmiles": "Cc1cc(C(=O)NCc2ccc(CN)cc2)[nH]c1Cc1ccccc1",
    "log10 of IC50": 3.94
  },
  {
    "querySmiles": "Cc1cnn(Cc2ccc(Cn3cc(C(=O)NCc4ccc(CN)c(F)c4)c(C(F)(F)F)n3)cc2)c1",
    "log10 of IC50": 1.71
  },
  {
    "querySmiles": "Cc1cc(C(=O)NCc2ccc(CN)cc2Cl)c(C)n1Cc1csc(-c2ccccc2)n1",
    "log10 of IC50": 1.95
  },
  {
    "querySmiles": "Cc1cc(C(=O)NCc2ccc(CN)cc2)c(C)n1Cc1cccc(CN)c1",
    "log10 of IC50": 3.73
  }
]
